Entry source: ChEMBL document CHEMBL4184280

test: Cmax in C57Bl6/N mouse at 10 mg/kg, po; type: ADME, organism-based; design: dose 10 mg/kg, route oral; conditions: in vivo
Value Kind: Cmax

> print(dat)
             compound  measured.value
1  CNc1ccc(C(N)=O)cn1      1430 ng/mL

====

test: Cmax in C57Bl6/N mouse at 1 mg/kg, iv; format: ADME, organism-based; parameters: dose 1 mg/kg, route intravenous; settings: in vivo
Value Kind: Cmax (ng/mL)

> print(dat)
             compound  value.kind  unit.abbreviation  measured.value
1  CNc1ccc(C(N)=O)cn1        Cmax              ng/mL             587
